FYI, the data here is from ChEMBL document CHEMBL4765336.

Would you mind telling me the reported pIC50 of each entry?
- assayed-system: CDK9/cyclin T1 (Homo sapiens, UniProt P50750)
- Sequence (O60563 whole entry, one chain of several): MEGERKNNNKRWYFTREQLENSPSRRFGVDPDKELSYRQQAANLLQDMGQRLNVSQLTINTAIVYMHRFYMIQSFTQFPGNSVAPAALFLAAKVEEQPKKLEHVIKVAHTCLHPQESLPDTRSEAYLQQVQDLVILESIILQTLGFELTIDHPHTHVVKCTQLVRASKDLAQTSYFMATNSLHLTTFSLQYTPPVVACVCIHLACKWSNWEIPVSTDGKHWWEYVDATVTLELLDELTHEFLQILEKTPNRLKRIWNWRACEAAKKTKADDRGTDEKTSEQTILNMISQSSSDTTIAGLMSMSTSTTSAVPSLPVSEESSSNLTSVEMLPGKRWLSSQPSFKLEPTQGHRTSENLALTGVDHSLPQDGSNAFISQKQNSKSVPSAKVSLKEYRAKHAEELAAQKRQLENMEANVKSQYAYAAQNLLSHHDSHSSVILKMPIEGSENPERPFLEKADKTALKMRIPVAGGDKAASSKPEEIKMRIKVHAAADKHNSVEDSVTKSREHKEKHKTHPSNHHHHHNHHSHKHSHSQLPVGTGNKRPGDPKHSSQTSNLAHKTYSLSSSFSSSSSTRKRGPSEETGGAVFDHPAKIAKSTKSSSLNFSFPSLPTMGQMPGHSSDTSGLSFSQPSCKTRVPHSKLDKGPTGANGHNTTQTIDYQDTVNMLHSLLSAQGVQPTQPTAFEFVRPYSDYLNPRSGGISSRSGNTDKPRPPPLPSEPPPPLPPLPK
- protocol-summary: Inhibition of CDK9/Cyclin T1 (unknown origin) preincubated for 20 mins followed by ATP addition and measured after 120 mins in presence of [33P-gamma] ATP by hotspot kinase assay
Remember, pIC50 is on a log scale: it is -log10 of the molar concentration.

Measured pIC50 of `COc1cc(F)ccc1-c1nc(Nc2ccc3c(N4CCCNCC4)c(C(C)=O)c(=O)oc3c2)ncc1F` : 8.80

For record `COc1ccccc1-c1ccnc(Nc2ccc3c(N4CCNCC4)cc(=O)oc3c2)n1` the listed pIC50 is 7.60

Sample `COc1cc(F)ccc1-c1ccnc(Nc2ccc3c(N4CCOCC4)c(C(C)=O)c(=O)oc3c2)n1` ; pIC50 observed: 8.06

Summary for this compound, `COc1cc(F)ccc1-c1nc(Nc2ccc3c(N4CCOCC4)c(C(C)=O)c(=O)oc3c2)ncc1Cl` : pIC50 is 8.44

For this compound ( `COc1cc(F)ccc1-c1ccnc(Nc2ccc3c(N4CCN(C)CC4)c(C(C)=O)c(=O)oc3c2)n1` ), measured pIC50 is 7.79

The value of pIC50 measured for the compound `COc1ccccc1-c1ccnc(Nc2ccc3c(C)c(C(C)=O)c(=O)oc3c2)n1` turned out to be 8.19

# pIC50 (compound: `COc1cccc(-c2ccnc(Nc3ccc4c(N5CCOCC5)c(C(C)=O)c(=O)oc4c3)n2)c1` ) is 7.74

The measured pIC50 associated with `CCC(=O)c1c(N2CCOCC2)c2ccc(Nc3nccc(-c4ccc(F)cc4OC)n3)cc2oc1=O` reads 8.44

get_value(item= `CC(=O)c1c(N2CCOCC2)c2ccc(Nc3nccc(-c4ccccc4C)n3)cc2oc1=O` , readout=pIC50) returns 6.31

// pIC50 lookup, compound = `COc1cc(F)ccc1-c1nc(Nc2ccc3c(N4CCOCC4)cc(=O)oc3c2)ncc1F` , result: 8.80

compound `CCc1ccccc1-c1ccnc(Nc2ccc3c(N4CCOCC4)c(C(C)=O)c(=O)oc3c2)n1` , pIC50 observed: 7.18

According to the records, this compound `COc1ccccc1-c1ccnc(Nc2ccc3c(N4CCCNCC4)cc(=O)oc3c2)n1` displays pIC50 of 7.93

GET /value?item= `COc1ccccc1-c1ccnc(Nc2ccc3c(N4CCOCC4)c(C(C)=O)c(=O)oc3c2)n1` &field=pIC50 returns 8.51

The compound identified as `CCN1CCN(c2c(C(C)=O)c(=O)oc3cc(Nc4nccc(-c5ccc(F)cc5OC)n4)ccc23)CC1` registered its pIC50 at 7.98

Quick note, pIC50 for `COc1ccccc1-c1cc(Nc2ccc3c(N4CCOCC4)c(C(C)=O)c(=O)oc3c2)ncn1` landed at 6.68

The recorded pIC50 for entry `COc1cccc(F)c1-c1ccnc(Nc2ccc3c(N4CCOCC4)c(C(C)=O)c(=O)oc3c2)n1` equals 7.86

The measured pIC50 associated with `CC(=O)c1c(N2CCOCC2)c2ccc(Nc3nccc(-c4ccccc4C(F)(F)F)n3)cc2oc1=O` reads 5.60

Data point: `COc1ccc(-c2ccnc(Nc3ccc4c(N5CCOCC5)c(C(C)=O)c(=O)oc4c3)n2)c(OC)c1` ; pIC50 = 7.27

###

- protocol-summary: Metabolic stability in dog liver microsomes assessed as half life at 1 uM incubated up to 60 mins in presence of NADPH by LC-MS/MS analysis
- Type: ADME, Canis lupus familiaris, Microsome
Give half-life at 1 µM for every item shown.
Enter your answer as a number in min; do not include the unit.

The value of half-life at 1 µM measured for the molecule `Cc1ncc2n1-c1ccc(Cl)cc1C(c1ccccc1F)=NC2` turned out to be 2.31

// recorded half-life at 1 µM for `COc1cc(F)ccc1-c1ccnc(Nc2ccc3c(N4CCOCC4)c(C(C)=O)c(=O)oc3c2)n1` : 14.1

Record `COc1cc(F)ccc1-c1nc(Nc2ccc3c(N4CCOCC4)c(C(C)=O)c(=O)oc3c2)ncc1F` . Reported half-life at 1 µM: 14

###

- Test system: MDA-MB-231
- protocol-summary: Antiproliferative activity against human MDA-MB-231 cells assessed as inhibition of cell growth incubated for 72 hrs by Celltiter-Glo luminescent assay
- Format: functional, cell-based
- experimental-parameters: MDA-MB-231, 72 h
value-kind: IC50
Returns: string containing the number followed by the unit.

In plain terms, `COc1cc(F)ccc1-c1nc(Nc2ccc3c(N4CCOCC4)c(C(C)=O)c(=O)oc3c2)ncc1F` has a documented IC50 of 230 nM

IC50 recorded for this molecule, `COc1cc(F)ccc1-c1ccnc(Nc2ccc3c(N4CCOCC4)c(C(C)=O)c(=O)oc3c2)n1` , is 1580 nM

###

- Test system: MV4-11
- protocol-summary: Antiproliferative activity against human MV4-11 cells assessed as inhibition of cell growth incubated for 72 hrs by Celltiter-Glo luminescent assay
- Format: functional, cell-based
- experimental-parameters: MV4-11, 72 h
For each entry below, report its pIC50 value.
Please note pIC50 is a logarithmic value: minus log10 of concentration in mol/L. Answer with that number alone.

Value of pIC50 reported for the compound `COc1ccccc1-c1ccnc(Nc2ccc3c(N4CCNCC4)cc(=O)oc3c2)n1` is 5.87

The reported pIC50 of the compound `COc1cccc(-c2ccnc(Nc3ccc4c(N5CCOCC5)c(C(C)=O)c(=O)oc4c3)n2)c1` was 5.83

# pIC50 of `COc1cccc(-c2ccnc(Nc3ccc4c(N5CCOCC5)c(C(C)=O)c(=O)oc4c3)n2)c1OC` = 5.29

Consider `COc1ccc(-c2ccnc(Nc3ccc4c(N5CCOCC5)c(C(C)=O)c(=O)oc4c3)n2)c(OC)c1` . Its measured pIC50 is 6.09

The compound listed as `COc1cc(F)ccc1-c1nc(Nc2ccc3c(N4CCCNCC4)c(C(C)=O)c(=O)oc3c2)ncc1F` shows pIC50 equal to 6.38

For record `COc1cc(F)ccc1-c1ccnc(Nc2ccc3c(N4CCOCC4)cc(=O)oc3c2)n1` the listed pIC50 is 5.64

The recorded pIC50 for entry `CCC(=O)c1c(N2CCOCC2)c2ccc(Nc3ncc(F)c(-c4ccc(F)cc4OC)n3)cc2oc1=O` equals 6.38

The measured pIC50 associated with `COc1cc(F)ccc1-c1ccnc(Nc2ccc3c(N4CCN(C)CC4)c(C(C)=O)c(=O)oc3c2)n1` reads 6.28

The compound `COc1cc(F)ccc1-c1ccnc(Nc2ccc3c(N4CCOCC4)c(C(C)=O)c(=O)oc3c2)n1` showed pIC50 equal to 6.60

Entry `COc1cccc(F)c1-c1ccnc(Nc2ccc3c(N4CCOCC4)c(C(C)=O)c(=O)oc3c2)n1` — recorded pIC50 = 6.28

Recorded result, `COc1cc(F)ccc1-c1nc(Nc2ccc3c(N4CCN(C)CC4)c(C(C)=O)c(=O)oc3c2)ncc1F` , pIC50: 6.40

Documented pIC50 of `CCC(=O)c1c(N2CCOCC2)c2ccc(Nc3nccc(-c4ccc(F)cc4OC)n3)cc2oc1=O` : 6.37

Note to self: pIC50 recorded for `COc1cc(F)ccc1-c1ccnc(Nc2ccc3c(N4CCCCC4)c(C(C)=O)c(=O)oc3c2)n1` was 6.14

// field: pIC50; key: `COc1ccccc1-c1ccnc(Nc2ccc3c(C)c(C(C)=O)c(=O)oc3c2)n1` ; value = 4.99

For this compound ( `COc1cc(F)ccc1-c1nc(Nc2ccc3c(N4CCOCC4)cc(=O)oc3c2)ncc1F` ), measured pIC50 is 5.51

Form field pIC50, entry `COc1ccccc1-c1ccnc(Nc2ccc3c(N4CCOCC4)cc(=O)oc3c2)n1` : 5.34

###

- protocol-summary: AUC (0 to t) in ICR mouse at 2 mg/kg, iv measured up to 24 hrs by LC-MS/MS analysis
- Type: ADME, organism-based
- Parameters: route intravenous, dose 2 mg/kg, time <=24
- experimental-parameters: in vivo
value-kind: AUC(0-t) at 24 h (ng·h/mL)
Field format: number, assumed ng·h/mL, no unit text.

Please fill in: AUC(0-t) at 24 h reported for `COc1cc(F)ccc1-c1nc(Nc2ccc3c(N4CCOCC4)c(C(C)=O)c(=O)oc3c2)ncc1F` = 560

###

- assayed-system: CDK9/Cyclin K (Homo sapiens)
- Sequence (P50750 whole entry): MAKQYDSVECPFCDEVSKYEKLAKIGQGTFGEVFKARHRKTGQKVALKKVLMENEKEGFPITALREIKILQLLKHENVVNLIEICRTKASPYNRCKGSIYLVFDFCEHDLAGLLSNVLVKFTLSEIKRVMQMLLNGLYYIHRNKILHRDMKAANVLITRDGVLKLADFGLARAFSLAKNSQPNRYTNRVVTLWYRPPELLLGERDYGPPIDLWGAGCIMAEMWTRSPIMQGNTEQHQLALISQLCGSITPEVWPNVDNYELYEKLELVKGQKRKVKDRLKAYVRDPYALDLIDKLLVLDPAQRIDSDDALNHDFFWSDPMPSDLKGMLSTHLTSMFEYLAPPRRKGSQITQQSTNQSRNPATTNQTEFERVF
- Sequence (O75909 whole entry, further chain): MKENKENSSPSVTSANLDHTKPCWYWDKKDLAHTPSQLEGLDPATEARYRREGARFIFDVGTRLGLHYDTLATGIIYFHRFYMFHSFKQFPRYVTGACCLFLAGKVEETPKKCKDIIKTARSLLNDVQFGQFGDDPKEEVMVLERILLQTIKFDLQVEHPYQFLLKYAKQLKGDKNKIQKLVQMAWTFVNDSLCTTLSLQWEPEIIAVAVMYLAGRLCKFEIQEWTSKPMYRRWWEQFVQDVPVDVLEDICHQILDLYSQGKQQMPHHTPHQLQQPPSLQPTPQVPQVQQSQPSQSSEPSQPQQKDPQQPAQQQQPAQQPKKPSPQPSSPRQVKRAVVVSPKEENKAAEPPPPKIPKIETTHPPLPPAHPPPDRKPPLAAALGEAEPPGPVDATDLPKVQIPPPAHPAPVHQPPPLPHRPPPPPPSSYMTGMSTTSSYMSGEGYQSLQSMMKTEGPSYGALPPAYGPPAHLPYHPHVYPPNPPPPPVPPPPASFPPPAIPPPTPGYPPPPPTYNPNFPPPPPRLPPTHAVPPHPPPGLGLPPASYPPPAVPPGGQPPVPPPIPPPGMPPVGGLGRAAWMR
- protocol-summary: Inhibition of CDK9/Cyclin K (unknown origin) preincubated for 20 mins followed by ATP addition and measured after 120 mins in presence of [33P-gamma] ATP by hotspot kinase assay
value-kind: IC50 (nM)
Answer format: numeric, nM implied, no suffix.

IC50 recorded for this compound, `CC(=O)c1c(C)c2ccc(Nc3nccc(-c4cccnc4)n3)cc2oc1=O` , is 235

###

- protocol-summary: Metabolic stability in human liver microsomes assessed as half life at 1 uM incubated up to 60 mins in presence of NADPH by LC-MS/MS analysis
- Assay type: ADME, Microsome
value-kind: half-life at 1 µM (min)
Output spec: scalar in min, unitless text.

Per the records, this compound ( `Cc1ncc2n1-c1ccc(Cl)cc1C(c1ccccc1F)=NC2` ) has half-life at 1 µM equal to 12.1

For record `COc1cc(F)ccc1-c1ccnc(Nc2ccc3c(N4CCOCC4)c(C(C)=O)c(=O)oc3c2)n1` the listed half-life at 1 µM is 33.5

Given item `COc1cc(F)ccc1-c1nc(Nc2ccc3c(N4CCOCC4)c(C(C)=O)c(=O)oc3c2)ncc1F` , the value recorded as its half-life at 1 µM is 35.7
